# procedure.text: Human liver microsomal stability
# Assay type: in vitro ADME
# assay.conditions: human liver microsomes, peptide 1 μM; read-out: t1/2
Where a SMILES comes first, the peptide text is derived from it. [ ]: non-standard residue; d: D form.

{"compound": "CSCC[C@H](NC(=O)[C@H](C)NC(=O)[C@H](Cc1ccccc1)NC(=O)[C@H](Cc1ccccc1)NC(=O)[C@@H]1CCCN1C(=O)[C@H](Cc1c[nH]c2ccccc12)NC(=O)[C@H](CCSC)NC(=O)[C@H](CCCCN)NC(=O)[C@H](CCCNC(=N)N)NC(=O)[C@H](Cc1ccccc1)NC(=O)[C@H](CO)NC(=O)[C@H](CCC(N)=O)NC(=O)[C@H](Cc1ccccc1)NC(=O)[C@@H](CC(=O)O)NC(=O)[C@@H](N)CCCNC(=N)N)C(=O)O [compound 3] (H-R[dD]FQSFRKMWPFFAM-OH)", "unit.descriptor": "min", "value.modifier": "<", "half-life": 2.5}
{"compound": "CSCC[C@@H]1NC(=O)[C@H](C)NC(=O)[C@H](Cc2ccccc2)NC(=O)[C@H](Cc2ccccc2)NC(=O)[C@@H]2CCCN2C(=O)[C@H](Cc2c[nH]c3ccccc23)NC(=O)[C@H](CCSC)NC(=O)[C@H](CCCCN)NC(=O)[C@H](CCCNC(=N)N)NC(=O)[C@H](Cc2ccccc2)NC(=O)[C@H](C)NC(=O)[C@H](CCC(N)=O)NC(=O)[C@H](Cc2ccccc2)NC(=O)[C@@H](C)NC(=O)[C@H](CCCNC(=N)N)NCCOCCNC1=O [compound 54]", "unit.descriptor": "min", "value.modifier": "=", "half-life": 18.4}
{"compound": "CSCC[C@@H]1NC(=O)[C@H](C)NC(=O)[C@H](Cc2ccccc2)NC(=O)[C@H](Cc2ccccc2)NC(=O)[C@@H]2CCCN2C(=O)[C@H](Cc2c[nH]c3ccccc23)NC(=O)[C@H](CCSC)NC(=O)[C@H](CCCCN)NC(=O)[C@H](CCCNC(=N)N)NC(=O)[C@H](Cc2ccccc2)NC(=O)[C@H](C)NC(=O)[C@H](CCC(N)=O)NC(=O)[C@H](Cc2ccccc2)NC(=O)[C@@H](C)NC(=O)[C@H](CCCNC(=N)N)NCCCNC1=O [compound 52]", "unit.descriptor": "min", "value.modifier": "=", "half-life": 41.4}
{"compound": "CSCC[C@@H]1NC(=O)[C@H](C)NC(=O)[C@H](Cc2ccccc2)NC(=O)[C@H](Cc2ccccc2)NC(=O)[C@@H]2CCCN2C(=O)[C@H](Cc2c[nH]c3ccccc23)NC(=O)[C@H](CCSC)NC(=O)[C@H](CCCCN)NC(=O)[C@H](CCCNC(=N)N)NC(=O)[C@H](Cc2ccccc2)NC(=O)[C@H](C)NC(=O)[C@H](CCC(N)=O)NC(=O)[C@H](Cc2ccccc2)NC(=O)[C@@H](C)NC(=O)[C@H](CCCNC(=N)N)NC1=O [compound 51] (cyclo(R[dA]FQAFRKMWPFFAM))", "unit.descriptor": "min", "value.modifier": "=", "half-life": 61.7}

----------
# target: human FOXP3 (FOXP3-6His) (Homo sapiens, UniProt Q9BZS1)
# Construct: 6xHis (C); made in house; host or cells: E. coli BL21 (DE3)
# Sequence (Q9BZS1 whole entry): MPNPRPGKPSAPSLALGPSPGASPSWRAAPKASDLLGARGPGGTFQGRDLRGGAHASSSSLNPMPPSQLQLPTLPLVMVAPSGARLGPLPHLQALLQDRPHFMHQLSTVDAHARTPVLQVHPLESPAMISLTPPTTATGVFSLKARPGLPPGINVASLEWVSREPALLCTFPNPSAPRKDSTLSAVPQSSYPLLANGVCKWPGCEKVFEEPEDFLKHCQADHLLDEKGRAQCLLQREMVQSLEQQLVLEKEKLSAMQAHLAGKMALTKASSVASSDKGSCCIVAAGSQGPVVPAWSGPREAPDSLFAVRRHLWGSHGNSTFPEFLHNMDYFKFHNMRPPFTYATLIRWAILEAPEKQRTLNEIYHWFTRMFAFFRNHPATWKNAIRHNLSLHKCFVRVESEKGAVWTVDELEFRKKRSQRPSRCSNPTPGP
# procedure.text: Peptide binding to FOXP3 by surface plasmon resonance (SPR)
# assay.conditions: peptides 1-20 μM; ratio to p60 (SEQ ID NO: 1)
Where no end group is shown, it is not given here.
Threshold rule: Binding to Foxp3 Ratio binding Peptide/p60 (fold change) greater than or equal to 3 fold change is yes; below that, no.

{"substance": "Ac-GRAFQAFRKMWAFFAM-NH2 (C-terminus assumed) [compound 45]", "class.label": "yes"}
{"substance": "H-RDFQSFRKMWPFFAM-OH [compound 1]", "class.label": "no"}
{"substance": "35 (RDFQSFRKMWYFFAM) [compound 35]", "class.label": "no"}
{"substance": "2 (RDFQSFRKMWPFFAM-NH2; not fully specified (N-terminus)) [compound 2]", "class.label": "no"}
{"substance": "7 (RSFQSFRKMWPFFAM) [compound 7]", "class.label": "no"}
{"substance": "28 (RDFQSFRHMWPFFAM) [compound 28]", "class.label": "no"}
